For each of the sequences below, state its binding signal.
Molecular target: OsWOX13 (Oryza sativa, UniProt Q5QMM3 1-267)
Sequence: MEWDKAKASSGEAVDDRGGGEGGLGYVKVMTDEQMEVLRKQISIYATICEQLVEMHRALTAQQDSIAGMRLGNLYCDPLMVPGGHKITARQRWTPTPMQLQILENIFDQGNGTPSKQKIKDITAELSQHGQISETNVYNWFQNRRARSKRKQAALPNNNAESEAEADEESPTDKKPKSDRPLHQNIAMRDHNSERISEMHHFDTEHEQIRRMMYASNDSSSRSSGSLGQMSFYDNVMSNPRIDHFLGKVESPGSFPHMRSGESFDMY
Assay: protein-binding microarray (RPBM); PBS, 2% BSA, 51.3 ng/ul salmon testes DNA, 50 uM zinc acetate, 200 nM TF, 25 C, 1 h; high values mean tight binding
Conditions: protein: recombinant; tags: N-terminal polyhistidine and DsRed monomer fusion (pET32a); label: CyDye5-dUTP incorporated in the synthesized complementary strand; 3' TTTTT single-stranded linker to array surface; dsDNA, one strand shown
In all, about 35,000 sequences were measured (“fluorescence intensity (a.u.)”: median about 10,000, highest 2% from about 52,000 on). Many of the other results were omitted from the sample, so the highest values are more common in it than they were.

Input: Dear colleague, please send me the reported binding signal for GATGTGATTGGATTAATTTTCAAAAGTACTTTTATATGATCGGAGTCACCTAGTGCAG when you can.
Output: 56300 fluorescence intensity (a.u.)

Input: Dear colleague, please send me the reported binding signal for GTTGATTTGTGTTTTGACTTTTGAAAAGACTACTGTTACTCGGAGTCACCTAGTGCAG when you can.
Output: 27500 fluorescence intensity (a.u.)

Input: Dear colleague, please send me the reported binding signal for GTTTTAGCTAATATTTAATTAATCATGTGCTAATGAGCTACGGAGTCACCTAGTGCAG when you can.
Output: 8590 fluorescence intensity (a.u.)

Input: Dear colleague, please send me the reported binding signal for CTTGGCTGAAACAAATCAATTAACATCACAAACAGGAGAACGGAGTCACCTAGTGCAG when you can.
Output: 11300 fluorescence intensity (a.u.)

Input: Dear colleague, please send me the reported binding signal for GAGGGAGTACTAATTATTTAATTTGATGATTATAATACTTCGGAGTCACCTAGTGCAG when you can.
Output: 17900 fluorescence intensity (a.u.)

Input: Dear colleague, please send me the reported binding signal for GAAATAATTAATCAATTAACGCTGATGTGTGAGCTGCGTACGGAGTCACCTAGTGCAG when you can.
Output: 53800 fluorescence intensity (a.u.)

Input: Dear colleague, please send me the reported binding signal for CTTACCTGCTTTAATTTATGCATAATGTTGCTTCATAAACCGGAGTCACCTAGTGCAG when you can.
Output: 6090 fluorescence intensity (a.u.)

Input: Dear colleague, please send me the reported binding signal for CAGTTGATTGGCCGACGTTATGATATGGTAGCTGAATTAGCGGAGTCACCTAGTGCAG when you can.
Output: 44100 fluorescence intensity (a.u.)

Input: Dear colleague, please send me the reported binding signal for TGCTTAATTAATTATGTGCTAATGAGGTCTTTCATTTTACCGGAGTCACCTAGTGCAG when you can.
Output: 56100 fluorescence intensity (a.u.)

Input: Dear colleague, please send me the reported binding signal for CCAGATTGAGCTGTTGCGCACCACCATCCTGACCAGCTGCCGGAGTCACCTAGTGCAG when you can.
Output: 17400 fluorescence intensity (a.u.)

Input: Dear colleague, please send me the reported binding signal for CGGTCAAATTATCCAAATTAATTAAAGAGGGAACTCGGTCCGGAGTCACCTAGTGCAG when you can.
Output: 35300 fluorescence intensity (a.u.)

Input: Dear colleague, please send me the reported binding signal for GAACAATAGATTAATATATAATTAAATAAATATTAGTCAACGGAGTCACCTAGTGCAG when you can.
Output: 25100 fluorescence intensity (a.u.)

Input: Dear colleague, please send me the reported binding signal for ATTTAATTAATATGTTAATGAGCTAATCCGTTTTCGGGACCGGAGTCACCTAGTGCAG when you can.
Output: 52300 fluorescence intensity (a.u.)

Input: Dear colleague, please send me the reported binding signal for AGTCAAATTAATCACGCAGCTGAATGCTGAATAATGTGTCCGGAGTCACCTAGTGCAG when you can.
Output: 24000 fluorescence intensity (a.u.)

Input: Dear colleague, please send me the reported binding signal for CTAATTATAAACCTTAATCAGCTAAAATCCTAACCCATCACGGAGTCACCTAGTGCAG when you can.
Output: 3290 fluorescence intensity (a.u.)

Input: Dear colleague, please send me the reported binding signal for GTTTGTGATTAATCTGATTTCGTACTATTAACGTGCAACTCGGAGTCACCTAGTGCAG when you can.
Output: 31300 fluorescence intensity (a.u.)

Input: Dear colleague, please send me the reported binding signal for TATTAATTTGTAATTAATATTGAATAACGCTGCGTGAGTACGGAGTCACCTAGTGCAG when you can.
Output: 45900 fluorescence intensity (a.u.)

Input: Dear colleague, please send me the reported binding signal for CTCTCTCTCTGATTAGTTAATTGAATACATTGTAAGGGCCCGGAGTCACCTAGTGCAG when you can.
Output: 41200 fluorescence intensity (a.u.)

Input: Dear colleague, please send me the reported binding signal for AGCTCTGATTGAATTAGCTAATTATGGTTGCACGTCTAAGCGGAGTCACCTAGTGCAG when you can.
Output: 59600 fluorescence intensity (a.u.)

Input: Dear colleague, please send me the reported binding signal for ATTATTGATTTGATGAAACTAATTTAGTATTATAAATATTCGGAGTCACCTAGTGCAG when you can.
Output: 34600 fluorescence intensity (a.u.)

Input: Dear colleague, please send me the reported binding signal for TCCCCTCTGATTAATTAATTAATTAATTAATTAGCTAAAACGGAGTCACCTAGTGCAG when you can.
Output: 65500 fluorescence intensity (a.u.)

Input: Dear colleague, please send me the reported binding signal for TGTGACAAACAATGATTACCAAGCTTTTGGGGAAATATAGCGGAGTCACCTAGTGCAG when you can.
Output: 16900 fluorescence intensity (a.u.)

Input: Dear colleague, please send me the reported binding signal for CTCAAGCTTAATTAAGCTCGTAATCTCATATAACCTCTTTCGGAGTCACCTAGTGCAG when you can.
Output: 57900 fluorescence intensity (a.u.)

Input: Dear colleague, please send me the reported binding signal for GATAAGTGATTGATTAACTACTAATTTAATTATCACTGTGCGGAGTCACCTAGTGCAG when you can.
Output: 63300 fluorescence intensity (a.u.)

Input: Dear colleague, please send me the reported binding signal for TATATATATATATATATATATATATATATATATATAGACACGGAGTCACCTAGTGCAG when you can.
Output: 7880 fluorescence intensity (a.u.)

Input: Dear colleague, please send me the reported binding signal for GTAATTAGCTAATCAATCTTTTCGGCTGTGCTTAATTAACCGGAGTCACCTAGTGCAG when you can.
Output: 33500 fluorescence intensity (a.u.)

Input: Dear colleague, please send me the reported binding signal for TGCTAATGGACTTATTACTTTTGCTTGCTTTAATTTTGCCCGGAGTCACCTAGTGCAG when you can.
Output: 14600 fluorescence intensity (a.u.)

Input: Dear colleague, please send me the reported binding signal for TACTAATGATTTTATGTAGAACATCATCACATATCTTATACGGAGTCACCTAGTGCAG when you can.
Output: 15800 fluorescence intensity (a.u.)

Input: Dear colleague, please send me the reported binding signal for AATTAATCATGCGTTAATGGACCGTTCCGTTTTCCGTGTTCGGAGTCACCTAGTGCAG when you can.
Output: 20900 fluorescence intensity (a.u.)

Input: Dear colleague, please send me the reported binding signal for TACAATCTGATTAATTAATTAGCACGGAAAATAATGTCAACGGAGTCACCTAGTGCAG when you can.
Output: 59200 fluorescence intensity (a.u.)

Input: Dear colleague, please send me the reported binding signal for GACAAATTTACAGTAGTTTAACTTTAAGCAAAGTCAAAACCGGAGTCACCTAGTGCAG when you can.
Output: 6260 fluorescence intensity (a.u.)

Input: Dear colleague, please send me the reported binding signal for CGTCTAATTAAGCGTAGACGATCTGATTCGCTAGCTCGCACGGAGTCACCTAGTGCAG when you can.
Output: 10600 fluorescence intensity (a.u.)
